# targetOrTestSystem: T1, cyno FcRn/b2M (cyno, UniProt Q8SPV9 24-297; Q8SPW0 21-119, biotinylated)
# T1 construct: bought recombinant biotinylated protein (Immunitrack ITF05 or ACRO FCM-C82W5); also called cFcRn; cFcRn/cb2M
# T1 sequence (Q8SPV9 24-297 limits assumed, chain 1 of 2): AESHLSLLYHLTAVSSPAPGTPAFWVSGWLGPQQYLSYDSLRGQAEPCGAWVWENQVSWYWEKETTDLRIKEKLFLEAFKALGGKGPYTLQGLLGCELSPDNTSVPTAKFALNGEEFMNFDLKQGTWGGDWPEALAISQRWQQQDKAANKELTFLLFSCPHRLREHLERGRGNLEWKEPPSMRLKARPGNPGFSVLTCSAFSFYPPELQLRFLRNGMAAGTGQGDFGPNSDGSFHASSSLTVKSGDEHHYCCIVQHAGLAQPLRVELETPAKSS
# T1 sequence (Q8SPW0 21-119 limits assumed, chain 2 of 2): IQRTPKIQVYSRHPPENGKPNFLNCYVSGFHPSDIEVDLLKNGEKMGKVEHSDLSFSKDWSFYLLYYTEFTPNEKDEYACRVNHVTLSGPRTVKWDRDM
# experiment: SPR pH 6.0;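 also: surface plasmon resonance kinetics at 25 °C, diluted periplasmic extracts injected over immobilized ligand surfaces, 120 s association then 600–3600 s dissociation, running buffer containing 150 mM NaCl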
attributeMeasured: koff (s⁻¹)

Take a look at these entries with their results.
# binder, unitDescriptor, koff
measured = [
    ("T0263018B11 G26M (VHH, name in Kabat numbering, FLAG3-His6 tagged) VHH: EVQLVESGGGVVQPGGSLRLSCAASMFTFSSYAMYWVRQAPGKGLEWVSAISSGGGSTDYADSVKGRFTISRDNSKNTLYLQMNSLRPEDTALYYCAADTLYTSLTWYSYWGQGTLVTVSS", "s⁻¹", "7.1e-05"),
    ("T0263018B11 W100cQ (VHH, name in Kabat numbering, FLAG3-His6 tagged) VHH: EVQLVESGGGVVQPGGSLRLSCAASGFTFSSYAMYWVRQAPGKGLEWVSAISSGGGSTDYADSVKGRFTISRDNSKNTLYLQMNSLRPEDTALYYCAADTLYTSLTQYSYWGQGTLVTVSS", "s⁻¹", 0.0059),
    ("T0263018B11 W100cG (VHH, name in Kabat numbering, FLAG3-His6 tagged) VHH: EVQLVESGGGVVQPGGSLRLSCAASGFTFSSYAMYWVRQAPGKGLEWVSAISSGGGSTDYADSVKGRFTISRDNSKNTLYLQMNSLRPEDTALYYCAADTLYTSLTGYSYWGQGTLVTVSS", "s⁻¹", 0.0051),
]

[A] T0263018B11 Y98F (VHH, name in Kabat numbering, FLAG3-His6 tagged) VHH: EVQLVESGGGVVQPGGSLRLSCAASGFTFSSYAMYWVRQAPGKGLEWVSAISSGGGSTDYADSVKGRFTISRDNSKNTLYLQMNSLRPEDTALYYCAADTLFTSLTWYSYWGQGTLVTVSS
[B] T0263018B11 T28A (VHH, name in Kabat numbering, FLAG3-His6 tagged) VHH: EVQLVESGGGVVQPGGSLRLSCAASGFAFSSYAMYWVRQAPGKGLEWVSAISSGGGSTDYADSVKGRFTISRDNSKNTLYLQMNSLRPEDTALYYCAADTLYTSLTWYSYWGQGTLVTVSS
Query: Smaller koff value? Options are A and B State your choice using its label.
Result: A
(A: 0.00026 s⁻¹, B: 0.00052 s⁻¹)
